target: T1, recombinant LILRB2 ECD (human, UniProt Q8N423 22-460); assay: ELISA, LILRB2 ECD binding to HLA-G-Fc
T1 construct: also called biotinylated LILRB2 ECD
T1 sequence (Q8N423 22-460 limits assumed): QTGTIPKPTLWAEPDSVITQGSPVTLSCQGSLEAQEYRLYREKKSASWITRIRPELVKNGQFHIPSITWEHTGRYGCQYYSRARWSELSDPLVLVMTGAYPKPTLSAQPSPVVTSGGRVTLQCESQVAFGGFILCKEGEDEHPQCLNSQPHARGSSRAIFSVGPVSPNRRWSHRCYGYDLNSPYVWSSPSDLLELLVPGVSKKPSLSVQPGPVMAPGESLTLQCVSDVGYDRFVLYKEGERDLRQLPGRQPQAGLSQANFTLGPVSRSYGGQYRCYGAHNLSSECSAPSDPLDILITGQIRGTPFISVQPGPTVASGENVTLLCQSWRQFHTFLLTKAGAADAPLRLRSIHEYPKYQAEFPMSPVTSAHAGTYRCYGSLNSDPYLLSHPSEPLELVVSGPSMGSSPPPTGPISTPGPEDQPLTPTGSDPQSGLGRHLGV
IC50 listing for selected binders.
REPORTED PROPERTY: IC50 (nM)

{"BINDER": "A-029 (antibody, V domains shown, tested as IgG) VH: QVQLVQSGAEVKKPGSSVKVSCKASGYTFSIYAMSWVRQAPGQGLEWMGGIIPSFRTAVYAQKFQGRVTITADESTSTAYMELSSLRSEDTAVYYCAKGPPVGSSSWYTDWYFDLWGRGTLVTVSS VL: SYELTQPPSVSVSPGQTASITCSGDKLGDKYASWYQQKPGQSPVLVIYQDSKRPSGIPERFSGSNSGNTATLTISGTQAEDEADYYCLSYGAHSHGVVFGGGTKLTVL", "UNIT SPEC": "nM", "QUANTITATIVE READOUT": 5.6}
{"BINDER": "A-045 (antibody, V domains shown, tested as IgG; HC of A-010 and LC of A-036) VH: QVQLVQSGAEVKKPGSSVKVSCKASGGTFQSQAFAWVRQAPGQGLEWMGSIIPGFSTANYAQKFQGRVTITADESTSTAYMELSSLRSEDTAVYYCAKDLGTYSSGWPYYYGMDVWGQGTTVTVSS VL: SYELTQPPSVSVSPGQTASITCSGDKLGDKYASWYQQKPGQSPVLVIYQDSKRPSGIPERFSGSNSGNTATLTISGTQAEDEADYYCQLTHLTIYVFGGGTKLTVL", "UNIT SPEC": "nM", "QUANTITATIVE READOUT": 3.5}
{"BINDER": "A-021 (antibody, V domains shown, tested as IgG) VH: QVQLVQSGAEVKKPGSSVKVSCKASGGSITSYAFAWVRQAPGQGLEWMGGIIPGFYAANYAQKFQGRVTITADESTSTAYMELSSLRSEDTAVYYCAKDLGTYSSGWPYYYGMDVWGQGTTVTVSS VL: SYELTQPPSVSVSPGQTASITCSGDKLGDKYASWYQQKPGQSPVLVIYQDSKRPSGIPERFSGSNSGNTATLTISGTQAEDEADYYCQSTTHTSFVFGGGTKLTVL", "UNIT SPEC": "nM", "QUANTITATIVE READOUT": 5}
{"BINDER": "A-014 (antibody, V domains shown, tested as IgG) VH: QVQLVQSGAEVKKPGSSVKVSCKASGGTFSSYAINWVRQAPGQGLEWMGGIIPIFHTSNYAQKFQGRVTITADESTSTAYMELSSLRSEDTAVYYCAKDLGTYSSGWPYYYGMDVWGQGTTVTVSS VL: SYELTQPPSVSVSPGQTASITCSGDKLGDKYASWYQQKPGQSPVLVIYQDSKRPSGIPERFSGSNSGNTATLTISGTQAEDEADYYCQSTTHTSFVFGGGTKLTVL", "UNIT SPEC": "nM", "QUANTITATIVE READOUT": 4.2}

Reference for the values: patent US20260209345A1
